Test: Phase I clinical trial Part A: pharmacokinetics
Format: in vivo
Settings: male, human, plasma, po, 1600 mg, 1600 mg single oral dose; healthy male subjects; SD not given; read-out: T1/2 (mean ± SD, hr) (converted)
experimental.readout: half-life

The reported value for C[C@H](Oc1ccc(Br)cc1-c1ccon1)C(=O)O in terms of half-life is 4.48 h

---

Assay: Phase IIA clinical trial (Part C): pharmacokinetics in patients
Assay type: in vivo
Conditions: both sexes, human, plasma, 1200 mg single oral dose, read-out: T1/2 (median, hr) (converted)
experimental.readout: half-life (h)
State the answer as a number, implicitly in h.

The reported value for C[C@H](Oc1ccc(Br)cc1-c1ccon1)C(=O)O in terms of half-life is 5.06

---

Test: Phase I clinical trial Part A: pharmacokinetics
Format: in vivo
Conditions: male, human, plasma, po, 1200 mg, 1200 mg single oral dose; healthy male subjects; read-out: AUC0-infinity (Mean ± SD, h · ng/mL)
experimental.readout: AUC(0-inf) (µg·h/mL)
State the answer as a number, implicitly in µg·h/mL.

The reported value for C[C@H](Oc1ccc(Br)cc1-c1ccon1)C(=O)O in terms of AUC(0-inf) is 358

---

Assay: Phase I clinical trial Part A: pharmacokinetics
Format: in vivo
Details: male, human, plasma, po, 400 mg, 400 mg single oral dose; healthy male subjects; read-out: T1/2 (mean ± SD, hr) (converted)
experimental.readout: half-life (h)
State the answer as a number, implicitly in h.

The reported value for C[C@H](Oc1ccc(Br)cc1-c1ccon1)C(=O)O in terms of half-life is 4.68

---

Assay: Phase IIA clinical trial (Part C): pharmacokinetics in patients
Type: in vivo
Conditions: both sexes, human, plasma, 1200 mg single oral dose, read-out: Tmax (median, hr)
experimental.readout: Tmax

The reported value for C[C@H](Oc1ccc(Br)cc1-c1ccon1)C(=O)O in terms of Tmax is 2 h

---

Experiment: Phase IIA clinical trial (Part C): pharmacokinetics in patients
Assay type: in vivo
Settings: both sexes, human, plasma, 400 mg single oral dose, read-out: AUC0-infinity (Mean ± SD, h · ng/mL)
experimental.readout: AUC(0-inf)

The reported value for C[C@H](Oc1ccc(Br)cc1-c1ccon1)C(=O)O [NMD670] in terms of AUC(0-inf) is 93700 ng·h/mL

---

Experiment: Phase I clinical trial Part A: pharmacokinetics
Type: in vivo
Details: male, human, plasma, po, 1600 mg, 1600 mg single oral dose; healthy male subjects; SD not given; read-out: AUC0-infinity (Mean ± SD, h · ng/mL)
experimental.readout: AUC(0-inf)
Form entry: enter the amount, then its unit.

The reported value for C[C@H](Oc1ccc(Br)cc1-c1ccon1)C(=O)O in terms of AUC(0-inf) is 826 µg·h/mL

---

Experiment: Phase I clinical trial Part A: pharmacokinetics
Type: in vivo
Conditions: male, human, plasma, po, 400 mg, 400 mg single oral dose; healthy male subjects; read-out: AUC0-infinity (Mean ± SD, h · ng/mL)
experimental.readout: AUC(0-inf) (ng·h/mL)
State the answer as a number, implicitly in ng·h/mL.

The reported value for C[C@H](Oc1ccc(Br)cc1-c1ccon1)C(=O)O in terms of AUC(0-inf) is 87700

---

Test: Phase I clinical trial Part A: pharmacokinetics
Type: in vivo
Settings: male, human, plasma, po, 200 mg, 200 mg single oral dose; healthy male subjects; read-out: AUC0-infinity (Mean ± SD, h · ng/mL)
experimental.readout: AUC(0-inf)
Form entry: enter the amount, then its unit.

The reported value for C[C@H](Oc1ccc(Br)cc1-c1ccon1)C(=O)O [NMD670] in terms of AUC(0-inf) is 36100 ng·h/mL
